// provenance: patent US9802904B2

- Tgt: USP1/UAF1 (Homo sapiens (Human))
- Sequence (O94782 whole entry): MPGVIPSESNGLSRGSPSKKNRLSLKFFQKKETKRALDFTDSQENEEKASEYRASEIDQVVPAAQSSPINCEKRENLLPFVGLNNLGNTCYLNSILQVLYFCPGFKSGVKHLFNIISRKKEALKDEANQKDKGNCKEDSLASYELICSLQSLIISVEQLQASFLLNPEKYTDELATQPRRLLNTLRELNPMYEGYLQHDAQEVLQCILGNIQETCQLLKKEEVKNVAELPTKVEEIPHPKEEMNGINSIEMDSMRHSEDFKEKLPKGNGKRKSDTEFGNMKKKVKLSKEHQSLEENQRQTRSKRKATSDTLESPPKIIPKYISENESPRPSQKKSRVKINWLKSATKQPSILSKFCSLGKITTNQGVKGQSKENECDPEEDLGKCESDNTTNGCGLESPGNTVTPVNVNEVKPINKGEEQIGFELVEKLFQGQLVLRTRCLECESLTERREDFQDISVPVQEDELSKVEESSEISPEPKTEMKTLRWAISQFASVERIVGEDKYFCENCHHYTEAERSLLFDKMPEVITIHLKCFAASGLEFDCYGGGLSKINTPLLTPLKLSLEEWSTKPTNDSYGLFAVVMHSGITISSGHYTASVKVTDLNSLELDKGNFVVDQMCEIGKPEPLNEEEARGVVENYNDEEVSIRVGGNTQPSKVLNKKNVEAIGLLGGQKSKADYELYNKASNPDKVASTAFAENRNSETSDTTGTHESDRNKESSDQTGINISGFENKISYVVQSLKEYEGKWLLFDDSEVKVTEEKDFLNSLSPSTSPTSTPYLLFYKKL
- Sequence (Q8TAF3 whole entry partner): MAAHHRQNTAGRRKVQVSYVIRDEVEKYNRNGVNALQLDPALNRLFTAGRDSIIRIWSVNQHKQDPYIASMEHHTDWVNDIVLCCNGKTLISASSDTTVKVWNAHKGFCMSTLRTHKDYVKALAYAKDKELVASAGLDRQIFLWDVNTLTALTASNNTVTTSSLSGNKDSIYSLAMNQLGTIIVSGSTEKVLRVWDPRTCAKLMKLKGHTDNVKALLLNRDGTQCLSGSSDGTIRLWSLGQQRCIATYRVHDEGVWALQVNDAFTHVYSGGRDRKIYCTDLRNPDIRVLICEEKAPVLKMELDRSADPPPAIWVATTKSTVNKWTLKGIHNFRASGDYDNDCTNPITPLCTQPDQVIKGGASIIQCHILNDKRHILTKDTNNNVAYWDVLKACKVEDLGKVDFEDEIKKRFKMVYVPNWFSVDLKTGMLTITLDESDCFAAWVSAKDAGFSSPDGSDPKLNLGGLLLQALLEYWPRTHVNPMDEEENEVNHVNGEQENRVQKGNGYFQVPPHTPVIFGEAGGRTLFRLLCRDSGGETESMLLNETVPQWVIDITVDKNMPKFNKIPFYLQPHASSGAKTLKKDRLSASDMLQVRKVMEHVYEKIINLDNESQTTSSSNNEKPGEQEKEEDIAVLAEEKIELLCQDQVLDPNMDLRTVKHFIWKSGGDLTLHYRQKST
- Run Description: qHTS assay for USP1/UAF1 activity (fluorometric, ubiquitin-rhodamine110)
- Format: biochemical
- Measurement Context: USP1/UAF1 inhibition, Table 1 of Example 8
IC50 less than 4 µM is True; IC50 greater than or equal to 4 µM is False.

Sample answers from the record:
{"Compound": "FC(F)(F)c1ccccc1-c1ncc2c(NCc3ccc(-c4cccnc4)cc3)cccc2n1 [Compound 20]", "Qualitative Label": "True"}
{"Compound": "Cc1ccc(CNc2cccc3nc(-c4ccccc4C(F)(F)F)ncc23)s1", "Qualitative Label": "False"}
{"Compound": "FC(F)(F)c1ccccc1-c1ncc2c(NCc3ccc(N4CCOCC4)cc3)cccc2n1", "Qualitative Label": "False"}
{"Compound": "FC(F)(F)c1cc(-c2ccc(CNc3cccc4nc(-c5ccccc5C(F)(F)F)ncc34)cc2)ccc1Cl", "Qualitative Label": "True"}
{"Compound": "FC(F)(F)c1ccccc1-c1ncc2c(NCc3cccs3)cccc2n1", "Qualitative Label": "False"}
{"Compound": "FC(F)(F)c1ccccc1-c1ncc2c(NCc3ccc(-c4cccnc4)cc3)cccc2n1 [Compound 21]", "Qualitative Label": "True"}
{"Compound": "FC(F)(F)c1ccccc1-c1ncc2c(NCC#Cc3cccnc3)cccc2n1", "Qualitative Label": "False"}

Attention now turns to another entry.
Decide: IC50 of COc1ccc(CNc2cccc3nc(-c4ccccc4C(F)(F)F)ncc23)cc1 strictly below 4 µM?
True
